Data origin, for the record: patent US12152048B2

experiment: Stability in dog plasma; assay type: in vitro ADME; conditions: 37° C., 30 minutes
Assay Metric: Percentage of the compound remaining in plasma (%)

Use the examples below as a reference point.
1) CC(C)OC(=O)[C@H](C)NP(=O)(OCOc1ccc([N+](=O)[O-])c2cccnc12)Oc1ccccc1 (stereo partly drawn)	95.6
2) CCC(CC)C(=O)OCOc1ccc([N+](=O)[O-])c2cccnc12	50.6
3) CCC(C)C(NC(=O)OCOc1ccc([N+](=O)[O-])c2cccnc12)C(=O)OC (stereo not drawn)	97.5
4) O=C(OCOc1ccc([N+](=O)[O-])c2cccnc12)N1CCOCC1	107.2
5) C[C@@H]1CN(C(=O)OCOc2ccc([N+](=O)[O-])c3cccnc23)C[C@H](C)O1	95.0

I: COC(=O)CNC(=O)OCOc1ccc([N+](=O)[O-])c2cccnc12
II: CC(C)(C)C(=O)OCOc1ccc([N+](=O)[O-])c2cccnc12 [Compound 4, (5-nitroquinolin-8-yloxy)methyl pivalate]
Q: Which entry shows the lesser value of Percentage of the compound remaining in plasma here, I or II ? Your answer should be the label attached to the chosen record.
A: II
(II: 56.3%, I: 92.3%)
